Species: Homo sapiens
Test: To identify inhibition of the IFN signalling (Jak-Stat) pathway via expression of an eGFP reporter gene under the control of an IFN-stimulated response element (ISRE) containing MxA promoter.
Type: functional
Parameters: scale not given: direction of the effect not stated beside the values
Details: 30 µM
measured_quantity: Percent Effect

In [3]: df
Out[3]:
                                    compound  measured_quantity  observed_value
 0  COc1cc(CN2CC[C@@]3(CCCO3)[C@@H](O)C2)ccc1F     Percent Effect          -18.1%
 1      Cc1ccc2c(c1)C1(CCNCC1)CN2C(=O)CN(C)C     Percent Effect           14.1%
 2  Cc1nc(COC[C@@H]2CC[C@H]3[C@H](CCN3c3ncccn3)O2)cs1     Percent Effect           8.36%
 3       CC(C)N(C)Cc1cnc2n1CCN(CCc1ccccc1)C2     Percent Effect          -8.89%
 4    O=C(CCNC(=O)C1CCCC1)NCc1ccccc1Cn1cncn1     Percent Effect           1.98%
 5  O=C(c1cccc2[nH]ncc12)N1CCCC1c1noc(C2CC2)n1 (stereo not drawn)     Percent Effect           24.4%
 6         CCN(CCn1cccn1)Cc1nc(-c2cccs2)oc1C     Percent Effect          0.654%
 7  CN(C)CC(=O)N1CCOC2(CCCN(c3ncccc3F)C2)C1 (stereo not drawn)     Percent Effect           8.63%
 8  CCCn1[nH]cc/c1=N\C(=O)CN1CCc2c(nc(C(C)C)n2C)C1     Percent Effect           18.7%
 9  CN1CCN(C[C@@H]2OC[C@H]3CN(Cc4ccsc4)CC[C@H]32)CC1     Percent Effect          -3.23%
10         CCN1CC2(CCNCC2)COc2ccccc2S1(=O)=O     Percent Effect           2.26%
11  CS(=O)(=O)NC[C@]12COC[C@H]1CN(C(=O)Cc1ccccc1F)C2     Percent Effect          -5.85%
12  CCCC(NC(=O)c1cc(C)n(C2CC2)c1C)c1nnn[nH]1 (stereo not drawn)     Percent Effect           14.1%
13   CNC(=O)CS(=O)(=O)Cc1coc(-c2ccc(F)cc2)n1     Percent Effect          -3.27%
14  O=C(c1cccc2c1OCO2)N1CCCC1Cn1cccn1 (stereo not drawn)     Percent Effect           14.8%
15  CN(Cc1nc(C2CC2)no1)C1CCCN(c2cccnn2)C1 (stereo not drawn)     Percent Effect         -0.447%
16  Cc1ccsc1C(=O)N1CC(C(=O)NCC2CC2)C2(CCOCC2)C1 (stereo not drawn)     Percent Effect           27.5%
17  O=C(NCC1CC1)C1CN(C(=O)c2cccc(Cl)c2)CC12CCOCC2 (stereo not drawn)     Percent Effect           12.4%
18  CS(=O)(=O)N1CCC(O)(Cn2c(C3CC3)nc3ccccc3c2=O)CC1     Percent Effect           11.6%
19  CCc1noc(C(C)N2CCN(c3ccc(C#N)cn3)CC2)n1 (stereo not drawn)     Percent Effect           17.9%
20  NC(=O)C1CN(C(=O)Nc2ccccc2N2CCCCCC2)CCO1 (stereo not drawn)     Percent Effect           11.3%
21  CN1N=C(C(=O)N2CCCC(CCc3c(F)cccc3F)C2)CCC1=O (stereo not drawn)     Percent Effect           4.11%
22   CC(C)Cc1cc(NC(=O)c2ccc(=O)[nH]n2)n(C)n1     Percent Effect          0.756%
